Data origin: ChEMBL document CHEMBL2380288

Below: a set of entries, each annotated with reported log10(IC50).
Target: Dihydrofolate reductase (Rattus norvegicus, UniProt Q920D2)
Sequence (Q920D2 whole entry): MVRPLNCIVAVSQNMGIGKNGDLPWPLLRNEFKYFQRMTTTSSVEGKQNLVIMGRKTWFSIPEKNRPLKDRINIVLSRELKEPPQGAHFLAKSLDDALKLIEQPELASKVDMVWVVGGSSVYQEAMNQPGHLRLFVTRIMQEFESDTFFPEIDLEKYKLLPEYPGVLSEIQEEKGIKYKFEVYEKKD
Note the log scale: values are log10 of IC50 expressed in µM.

Below: 3 compounds and their reported log10(IC50).
| Structure String | log10(IC50) |
| --- | --- |
| Nc1nc(N)c2cc(Nc3cccc4ccccc34)cnc2n1 | 0.46 |
| Nc1nc(N)c2cc(Nc3ccc4ccccc4c3)cnc2n1 | 0.52 |
| COc1ccc(N(C)c2cnc3nc(N)nc(N)c3c2)cc1 | -2.23 |

Query string: Please look up its log10(IC50): COc1ccccc1Nc1cnc2nc(N)nc(N)c2c1
Result string: -0.12

Query string: Follow-up entry: Nc1nc(N)c2cc(Nc3cc(F)c(F)c(F)c3)cnc2n1
Result string: 0.72

Query string: Follow-up entry: Cc1ccc(N(C)c2cnc3nc(N)nc(N)c3c2)cc1
Result string: -1.55
